- studyTarget: Phosphatidylinositol 4,5-bisphosphate 3-kinase catalytic subunit delta isoform (Homo sapiens) (UniProt O00329)
- Sequence (O00329 whole entry, canonical isoform): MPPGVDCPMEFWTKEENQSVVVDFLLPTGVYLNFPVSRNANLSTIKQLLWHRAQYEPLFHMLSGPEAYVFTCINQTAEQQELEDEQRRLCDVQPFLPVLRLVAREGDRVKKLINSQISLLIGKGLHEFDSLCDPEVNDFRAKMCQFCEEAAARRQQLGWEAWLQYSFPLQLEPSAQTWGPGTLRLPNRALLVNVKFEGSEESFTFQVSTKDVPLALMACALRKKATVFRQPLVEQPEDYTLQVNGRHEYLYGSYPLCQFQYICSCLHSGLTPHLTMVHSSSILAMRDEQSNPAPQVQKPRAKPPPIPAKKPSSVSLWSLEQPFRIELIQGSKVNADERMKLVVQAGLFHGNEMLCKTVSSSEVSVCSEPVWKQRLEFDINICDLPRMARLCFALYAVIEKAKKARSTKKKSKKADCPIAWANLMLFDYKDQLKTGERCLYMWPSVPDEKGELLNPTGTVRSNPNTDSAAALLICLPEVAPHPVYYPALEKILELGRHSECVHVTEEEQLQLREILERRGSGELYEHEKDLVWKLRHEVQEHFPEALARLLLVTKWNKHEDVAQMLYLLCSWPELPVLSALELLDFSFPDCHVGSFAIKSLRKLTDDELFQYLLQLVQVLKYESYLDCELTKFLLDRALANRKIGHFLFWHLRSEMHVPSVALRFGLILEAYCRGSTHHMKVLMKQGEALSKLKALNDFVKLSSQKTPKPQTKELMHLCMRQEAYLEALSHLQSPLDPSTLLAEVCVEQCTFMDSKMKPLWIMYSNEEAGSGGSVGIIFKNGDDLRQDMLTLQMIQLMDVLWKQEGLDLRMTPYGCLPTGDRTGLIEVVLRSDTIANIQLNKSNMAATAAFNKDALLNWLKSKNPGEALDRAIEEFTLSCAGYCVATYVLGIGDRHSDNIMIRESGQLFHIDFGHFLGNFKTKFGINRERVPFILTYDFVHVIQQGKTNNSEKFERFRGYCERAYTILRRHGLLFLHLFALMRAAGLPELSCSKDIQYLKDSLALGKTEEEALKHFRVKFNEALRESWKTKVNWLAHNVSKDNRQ
- methodDescription: Inhibition of N-terminal His6-tagged recombinant full length human PI3Kdelta expressed in baculovirus infected Sf21 insect cells at 0.1 uM by HTRF assay relative to control
# binarize inhibition: threshold 20% inclusive, high side condition met, low side condition not met

Previously resolved entries follow.
C[C@H]1CC[C@@H](c2nc3cccc(Cl)c3c(=O)n2-c2cccnc2)N1c1nc(N)nc2[nH]cnc12: condition not met
C[C@H]1CC[C@@H](c2nc3cccc(C#Cc4cccnc4)c3c(=O)n2-c2ccccc2)N1c1nc(N)nc(N)c1C#N: condition not met
COc1cncc(-c2cccc3nc([C@@H]4CC[C@H](C)N4c4nc(N)nc(N)c4C#N)n(-c4cccnc4)c(=O)c23)c1: condition not met
C[C@H]1CC[C@@H](c2nc3cccc(C#Cc4ccccc4)c3c(=O)n2-c2ccccc2)N1c1nc(N)nc(N)c1C#N: condition not met

Q: hey, is inhibition for this one >= 20%? C[C@H]1CC[C@@H](c2nc3cccc(Cl)c3c(=O)n2-c2cc(F)cc(F)c2)N1c1nc(N)nc(N)c1C#N
Result: condition not met

Q: Has Cc1cc(N2[C@@H](C)CC[C@H]2c2nc3cccc(Cl)c3c(=O)n2-c2ccccc2)nc(N)n1 a recorded inhibition greater than or equal to 20%?
Result: condition met

Q: Hi team, for C[C@H]1CC[C@@H](c2nc3cccc(Cl)c3c(=O)n2-c2ccccc2)N1c1nc(N)nc2[nH]ccc12 , is the recorded inhibition at or above 20%?
Result: condition met

Q: # bool: inhibition of C[C@H]1CC[C@@H](c2nc3cc(F)ccc3c(=O)n2-c2cccnc2)N1c1nc(N)nc(N)c1C#N >= 20%
Result: condition not met
